Provenance of the data: patent US20230203185A1

- Experimental target: T1, pCD163-SRCR4-7-huFc (porcine, UniProt Q2VL90 372-818, limits assumed)
- T1 construct: also called pCD163:SRCR4-7-Fc; pCD163-SRCR4-7-Fc; not shown: human Fc (huFc)
- T1 sequence (Q2VL90 372-818 limits assumed): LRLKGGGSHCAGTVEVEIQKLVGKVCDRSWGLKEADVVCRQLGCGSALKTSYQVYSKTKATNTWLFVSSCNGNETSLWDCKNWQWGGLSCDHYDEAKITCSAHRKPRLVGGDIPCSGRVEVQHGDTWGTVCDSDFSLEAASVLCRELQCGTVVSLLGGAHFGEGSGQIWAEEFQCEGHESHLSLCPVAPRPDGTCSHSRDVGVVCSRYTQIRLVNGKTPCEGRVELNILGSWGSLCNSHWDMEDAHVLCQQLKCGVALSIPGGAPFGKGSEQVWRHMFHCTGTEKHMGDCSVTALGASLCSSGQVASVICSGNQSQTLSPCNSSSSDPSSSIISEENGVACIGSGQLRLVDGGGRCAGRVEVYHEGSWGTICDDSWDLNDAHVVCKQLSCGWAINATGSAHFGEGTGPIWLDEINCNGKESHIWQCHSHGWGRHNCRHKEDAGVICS
- Protocol notes: ELISA, periplasmic extract on coated antigen
Assign labels as follows, please: 1 for O.D. 450 below 0.9 O.D. 450; -1 for O.D. 450 equal to or exceeding 0.9 O.D. 450.

- Binder: "VHH 008 (1H01) (VHH, Llama single domain antibody; also called 78(#8); VHCDR3 78(#8); not shown: tags: c-myc tag in periplasmic extract (ELISA, FACS); FLAG and His tags in purified VHH (SPR, infection assays)) VHH: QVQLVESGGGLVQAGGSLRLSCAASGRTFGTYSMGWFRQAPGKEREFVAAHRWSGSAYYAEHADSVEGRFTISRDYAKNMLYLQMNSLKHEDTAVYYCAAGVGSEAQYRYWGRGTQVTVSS"
  Assigned label: -1
- Binder: "VHH 001 (1B02) (VHH, Llama single domain antibody; also called 144(#1); VHCDR3 144(#1); not shown: tags: c-myc tag in periplasmic extract (ELISA, FACS); FLAG and His tags in purified VHH (SPR, infection assays)) VHH: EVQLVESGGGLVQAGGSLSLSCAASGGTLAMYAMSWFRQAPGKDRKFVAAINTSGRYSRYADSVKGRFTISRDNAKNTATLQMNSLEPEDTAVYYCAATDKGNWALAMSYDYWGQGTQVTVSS"
  Assigned label: 1
- Binder: "VHH 002 (1B04) (VHH, Llama single domain antibody; also called 76(#2); VHCDR3 76(#2); not shown: tags: c-myc tag in periplasmic extract (ELISA, FACS); FLAG and His tags in purified VHH (SPR, infection assays)) VHH: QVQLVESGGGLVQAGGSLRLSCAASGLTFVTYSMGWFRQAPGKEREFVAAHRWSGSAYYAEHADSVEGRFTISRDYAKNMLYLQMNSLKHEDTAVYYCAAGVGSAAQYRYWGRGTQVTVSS"
  Assigned label: -1

*Q* Confirm or reject: O.D. 450 of VHH 018 (3E01) (VHH, Llama single domain antibody; also called 49(#18); VHCDR3 49(#18); not shown: tags: c-myc tag in periplasmic extract (ELISA, FACS); FLAG and His tags in purified VHH (SPR, infection assays)) VHH: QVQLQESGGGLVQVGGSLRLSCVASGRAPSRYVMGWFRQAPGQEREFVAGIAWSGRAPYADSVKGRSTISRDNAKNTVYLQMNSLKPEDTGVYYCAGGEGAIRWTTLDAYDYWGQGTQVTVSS lies strictly below 0.9 O.D. 450
*A* -1

*Q* API: query returns whether the binder falls strictly under 0.9 O.D. 450 in O.D. 450. Query: VHH 017 (3D03) (VHH, Llama single domain antibody; also called 29(#17); VHCDR3 29(#17); not shown: tags: c-myc tag in periplasmic extract (ELISA, FACS); FLAG and His tags in purified VHH (SPR, infection assays)) VHH: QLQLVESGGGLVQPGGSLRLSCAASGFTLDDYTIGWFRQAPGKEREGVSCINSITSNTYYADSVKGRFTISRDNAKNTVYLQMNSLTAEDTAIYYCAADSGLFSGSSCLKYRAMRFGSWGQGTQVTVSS
*A* 1

*Q* Record VHH 012 (2C07) (VHH, Llama single domain antibody; also called 41(#12); VHCDR3 41(#12); not shown: tags: c-myc tag in periplasmic extract (ELISA, FACS); FLAG and His tags in purified VHH (SPR, infection assays)) VHH: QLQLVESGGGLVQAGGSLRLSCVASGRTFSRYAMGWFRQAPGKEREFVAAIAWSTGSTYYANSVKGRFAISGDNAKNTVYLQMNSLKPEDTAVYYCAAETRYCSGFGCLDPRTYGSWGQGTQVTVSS : is its O.D. 450 strictly below 0.9 O.D. 450?
*A* -1

*Q* Is it true that O.D. 450 reported for VHH 019 (3E11) (VHH, Llama single domain antibody; also called 47(#19); VHCDR3 47(#19); not shown: tags: c-myc tag in periplasmic extract (ELISA, FACS); FLAG and His tags in purified VHH (SPR, infection assays)) VHH: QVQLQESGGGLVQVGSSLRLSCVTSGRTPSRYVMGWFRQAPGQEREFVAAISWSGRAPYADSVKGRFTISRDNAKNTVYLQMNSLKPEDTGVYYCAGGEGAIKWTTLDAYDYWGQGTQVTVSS is less than 0.9 O.D. 450?
*A* -1

*Q* O.D. 450 strictly < 0.9 O.D. 450 for this binder? VHH 011 (2B06) (VHH, Llama single domain antibody; also called 57(#11); VHCDR3 57(#11); not shown: tags: c-myc tag in periplasmic extract (ELISA, FACS); FLAG and His tags in purified VHH (SPR, infection assays)) VHH: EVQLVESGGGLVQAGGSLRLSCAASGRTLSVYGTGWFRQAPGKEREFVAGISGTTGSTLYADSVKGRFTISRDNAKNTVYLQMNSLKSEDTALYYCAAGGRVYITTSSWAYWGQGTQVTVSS
*A* 1

*Q* Is the reported O.D. 450 for VHH 020 (3H11) (VHH, Llama single domain antibody; also called 48(#20); VHCDR3 48(#20); not shown: tags: c-myc tag in periplasmic extract (ELISA, FACS); FLAG and His tags in purified VHH (SPR, infection assays)) VHH: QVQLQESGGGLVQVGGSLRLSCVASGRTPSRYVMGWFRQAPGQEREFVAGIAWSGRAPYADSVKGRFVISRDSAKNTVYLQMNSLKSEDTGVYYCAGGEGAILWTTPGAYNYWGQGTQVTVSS strictly below 0.9 O.D. 450?
*A* -1
